system: genotype 1b-Con1 subgenomic replicon cell line; assay: HCV Polymerase Replicon Assay (genotype 1b-Con1, luciferase reporter); type: cell-based; conditions: Hepatitis C virus, 72 h, 1b-Con1 replicon, three days
Assignment: determine reported EC50 for the given compounds.

Qu. Please look at this compound and report its EC50: "CCOC(=O)CCNC(=O)Nc1cc(-c2ccc3cc(NS(C)(=O)=O)ccc3c2)c(OC)c(C(C)(C)C)c1"
Ans. 100 to 1000 nM

Qu. Answer with reported EC50 of "COc1c(-c2ccc3cc(NS(C)(=O)=O)ccc3c2)cc(-n2ccccc2=O)cc1C(C)(C)C"
Ans. 10 to 100 nM

Qu. Look up and report measured EC50 for this entry: "CC(C)(C)c1cc(-c2c[nH]c(=O)[nH]c2=O)cc(-c2ccc3cc(NS(C)(=O)=O)ccc3c2)c1I"
Ans. 10 to 100 nM

Qu. Return EC50 for the following compound: "COc1c(-c2ccc3cc(NS(C)(=O)=O)ccc3c2)cc(N2CC(=O)NC2=O)cc1C(C)(C)C"
Ans. 100 to 1000 nM

Qu. Write down EC50 measured for item "COc1c(-c2ccc3c(CNS(C)(=O)=O)csc3c2)cc(-c2c[nH]c(=O)[nH]c2=O)cc1C(F)(F)F"
Ans. 10 to 100 nM

Qu. For the compound "COc1c(-c2ccc3cc(NS(C)(=O)=O)ccc3c2)cc(N2CCCNC2=O)cc1C(C)(C)C" , report EC50.
Ans. ≤ 10 nM

Qu. Return the recorded EC50 value; entry: "COc1c(-c2ccc3c(c2)CC=C3CNS(C)(=O)=O)cc(-c2cn(S(C)(=O)=O)c(=O)[nH]c2=O)cc1C(F)(F)F"
Ans. ≤ 10 nM

Qu. State, in one line, measured EC50 of "COc1c(-c2ccc3cc(NS(C)(=O)=O)ccc3c2)cc(N2CCCC2=O)cc1C(C)(C)C"
Ans. 10 to 100 nM

Qu. Return reported EC50. Input compound: "COc1c(-c2ccc3cc(NS(C)(=O)=O)ccc3c2)cc(NC(C)=O)cc1C(C)(C)C"
Ans. 100 to 1000 nM

Qu. Give recorded EC50. "COc1c(/C=C/c2ccc(NS(C)(=O)=O)cc2)cc(-c2c[nH]c(=O)[nH]c2=O)cc1C(F)(F)F"
Ans. 10 to 100 nM

Qu. Quickly give me recorded EC50 for "COc1c(/C=C/c2ccc(NS(C)(=O)=O)cc2)cc(-c2c[nH]c(=O)[nH]c2=O)cc1C(C)(C)C"
Ans. ≤ 10 nM

Qu. Write down EC50 measured for item "CC(C)(C)c1cc(-c2c[nH]c(=O)[nH]c2=O)cc(-c2ccc3cc(NS(C)(=O)=O)ccc3c2)c1N"
Ans. 10 to 100 nM

Qu. Indicate its recorded EC50; the compound in question is "COc1c(-c2ccc3cc(NS(C)(=O)=O)ccc3c2)cc(-c2c[nH]c(=O)[nH]c2=O)cc1-c1cnn(C)c1"
Ans. > 1000 nM

Qu. Note down EC50 recorded for "COc1c(-c2ccsc2)cc(-c2c[nH]c(=O)[nH]c2=O)cc1-c1ccc2cc(NS(C)(=O)=O)ccc2c1"
Ans. 10 to 100 nM

Qu. Report EC50, nothing else, for this compound: "COc1c(-c2ccc3cc(NS(C)(=O)=O)ccc3c2)cc(N2CCNC2=O)cc1C(C)(C)C"
Ans. 10 to 100 nM
